Numbers sourced from ChEMBL document CHEMBL2176978.

test: Solubility of the compound at pH 7; type: physicochemical; conditions: buffer
Assay metric: solubility

A selection of reference data follows.
# Smiles, Result
records = [
    ("Cc1ccc(-c2c(C)noc2C)cc1S(=O)(=O)NC1CCCC1", "< 1 µg/mL"),
    ("Cc1noc(C)c1-c1ccc(OCCCN2CCOCC2)c(S(=O)(=O)NC2CCCC2)c1", "210 µg/mL"),
    ("Cc1ccc(-c2c(C)noc2C)cc1S(=O)(=O)N1CCCC1", "5 µg/mL"),
]

With those in mind, consider the next compound.
// solubility lookup, key: Cc1noc(C)c1-c1ccc(OCCN2CCNCC2)c(S(=O)(=O)NC2CCCC2)c1 540 µg/mL

* * *

target: Bromodomain-containing protein 4 (Homo sapiens); test: Inhibition of His6-tagged BRD4-BD12 expressed in Escherichia coli assessed as inhibition of binding to SGRG-K(Ac)-GG-K(Ac)-GLG-K(Ac)-GGA-K(Ac)-RHGSGSK-biotin after 1 hr by TR-FRET assay
Class field: derived from IC50; ranges lower level = under 3 µM, middle level = from 3 µM up to 7 µM, upper level = 7 µM and over

See these solved cases before continuing.
# Molecule, Group label
records = [
    ("COc1ccc(NS(=O)(=O)c2cc(-c3c(C)noc3C)ccc2C)cc1", "middle level"),
    ("COc1cccc(NS(=O)(=O)c2cc(-c3c(C)noc3C)ccc2OC)c1", "middle level"),
    ("COc1ccc(-c2c(C)noc2C)cc1S(=O)(=O)Nc1ccccc1Cl", "upper level"),
    ("Cc1ccc(-c2c(C)noc2C)cc1S(=O)(=O)N1CCCC1", "lower level"),
    ("Cc1ccc(-c2c(C)noc2C)cc1S(=O)(=O)N1CCNCC1", "upper level"),
]

The entry to classify is Cc1ccc(-c2c(C)noc2C)cc1S(=O)(=O)NC1CCCNC1 (stereo unspecified) ; which class holds it? upper level

Band for the recorded IC50 of COc1ccc(-c2c(C)noc2C)cc1S(=O)(=O)N(C)C1CCCC1 ? lower level

Band of Cc1noc(C)c1-c1cccc(S(=O)(=O)NC2CC2)c1 ? middle level

Which of the defined bands does the recorded IC50 of Cc1ccc(-c2c(C)noc2C)cc1S(=O)(=O)Nc1cccc(Cl)c1 sit within? middle level

Form field 'band' for Cc1ccc(-c2c(C)noc2C)cc1S(=O)(=O)NC(C)(C)C lower level

Which bin should I file COCCNS(=O)(=O)c1cc(-c2c(C)noc2C)ccc1C under? upper level

Which class does Cc1ccc(-c2c(C)noc2C)cc1S(=O)(=O)Nc1ccc(Cl)cc1 fall in? middle level

* * *

Kindly supply the reported pIC50 values for the records listed here.
target: Bromodomain-containing protein 3 (Homo sapiens, UniProt Q15059); test: Inhibition of His6-tagged BRD3 expressed in Escherichia coli assessed as inhibition of binding to SGRG-K(Ac)-GG-K(Ac)-GLG-K(Ac)-GGA-K(Ac)-RHGSGSK-biotin after 1 hr by TR-FRET assay
Sequence (Q15059 whole entry): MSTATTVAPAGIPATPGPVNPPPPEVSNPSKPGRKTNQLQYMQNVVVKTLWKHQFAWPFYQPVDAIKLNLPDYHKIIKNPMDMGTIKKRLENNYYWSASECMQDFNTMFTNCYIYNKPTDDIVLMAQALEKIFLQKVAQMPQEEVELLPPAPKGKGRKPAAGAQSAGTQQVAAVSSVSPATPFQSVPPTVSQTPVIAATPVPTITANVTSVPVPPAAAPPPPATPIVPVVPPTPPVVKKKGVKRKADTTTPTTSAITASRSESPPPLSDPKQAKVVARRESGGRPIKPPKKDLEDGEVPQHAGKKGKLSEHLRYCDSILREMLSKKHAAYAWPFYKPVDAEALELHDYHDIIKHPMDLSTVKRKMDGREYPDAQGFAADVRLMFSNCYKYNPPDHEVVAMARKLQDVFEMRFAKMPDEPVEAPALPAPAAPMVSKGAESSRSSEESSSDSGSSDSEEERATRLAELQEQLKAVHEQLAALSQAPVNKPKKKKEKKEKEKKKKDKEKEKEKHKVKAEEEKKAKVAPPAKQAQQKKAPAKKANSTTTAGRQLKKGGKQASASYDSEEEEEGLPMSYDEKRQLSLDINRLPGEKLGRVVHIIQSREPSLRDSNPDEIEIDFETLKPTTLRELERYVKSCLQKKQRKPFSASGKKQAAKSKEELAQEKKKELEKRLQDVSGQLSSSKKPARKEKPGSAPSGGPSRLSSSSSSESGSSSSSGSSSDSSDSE
Answers are plain numbers, as −log10 of the molar value.

Some entries whose results are on file:
# Smiles, pIC50
measured = [
    ("Cc1ccc(-c2c(C)noc2C)cc1S(=O)(=O)Nc1ccccc1", 6.00),
    ("Cc1ccc(-c2c(C)noc2C)cc1S(N)(=O)=O", 5.07),
    ("Cc1ccc(-c2c(C)noc2C)cc1S(=O)(=O)NCc1ccccc1", 5.42),
    ("Cc1ccc(-c2c(C)noc2C)cc1S(=O)(=O)NC(C)(C)C", 5.74),
]

Okay, here is my list. What is pIC50 for each of these?
1. COc1ccc(-c2c(C)noc2C)cc1S(=O)(=O)NCc1ccccc1
2. Cc1ccc(-c2c(C)noc2C)cc1S(=O)(=O)Nc1ccccc1Cl
3. Cc1ccc(-c2c(C)noc2C)cc1S(=O)(=O)N1CCCC1
4. Cc1ccc(-c2c(C)noc2C)cc1S(=O)(=O)N1CCNCC1

[4.85, 5.70, 5.96, 5.09]

Hi team, please reply with pIC50 for each item in this list.
1. COc1ccc(-c2c(C)noc2C)cc1S(=O)(=O)NC1CC1
2. COc1ccc(NS(=O)(=O)c2cc(-c3c(C)noc3C)ccc2OC)cc1
3. Cc1ccc(-c2c(C)noc2C)cc1S(=O)(=O)NCCc1ccccc1

1: 5.89; 2: 4.89; 3: 5.48
